Reference for the values: PubChem BioAssay

assay: viability gain of MRP-1-high H69AR cells under doxorubicin, pilot screen, MRP-1 activator project, CellTiter-Glo, duplicate (AID 807); conditions: H69AR viability with doxorubicin, CellTiter-Glo luminescence; at 10 µM; hits give high values;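 also: compound pretreatment 18-22 h then 72 h combined with doxorubicin; 0% = doxorubicin alone and 100% = vehicle without doxorubicin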
reported_endpoint: viability increase (%)
Report as a plain number; the unit % is understood.

Cc1ccc(NC(=O)c2cc(-c3cccc(O)c3)on2)cc1C
-0.54
COc1ccc(OCC(=O)OCCN2C(=O)c3ccccc3C2=O)cc1
-0.31
O=C(C1=C(O)C(=O)N(CCc2ccccc2)C1c1cccnc1)c1ccco1 (stereo unspecified)
-3.61

Provide viability increase value for the following compound: COc1cccc(NC(=O)Nc2nnc(N3CCCCC3C)s2)c1 (stereo unspecified)
-4.53

Report viability increase for "O=C(CS(=O)(=O)c1c[nH]c2ccccc12)Nc1ccc2c(c1)OCCO2"
-3.49

Fill in viability increase for record "O=C(C1CC1)N1CCc2cc(Br)cc(S(=O)(=O)N3CCCCCC3)c21"
-3.17

====

Listed here are compounds together with their documented viability.
test: growth suppression of beta-catenin knockout HCT116, pilot screen, human colon tumor cells (AID 823); conditions: CellTiter-Glo, 60 h, at 10 µM, hits give low values;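 also: 0% = wells killed by 20 µM Hyamine and 100% = untreated DMSO cell wells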
Records with an inconclusive call do not appear.
Answer in %, number only, no unit symbol.

Previously resolved entries follow.
O=C(NC1CCCCC1)C(c1ccccc1)N1CCC2(CC1)OCCO2 (stereo unspecified)
97.6
CC1CCN(C(=O)CNC(=O)Cn2ccc3ccccc3c2=O)CC1
98.2
CCCSc1nc(N)c2c3c(sc2n1)CN(C)CC3
80.9
Cc1ccccc1NC(=O)CSC(N)=O
89.4
c1ccc(COc2ccc(Nc3ncnc4nc[nH]c34)cc2)cc1
85.7

Specify viability for "COc1ccc(-c2cn3c(C)c(C(=O)NCc4ccc5c(c4)OCO5)sc3n2)cc1" and stop.
99.8

====

Below, each of the compounds is paired with its reported viability increase value.
test: viability gain of MRP-1-high H69AR cells under doxorubicin, pilot screen, MRP-1 activator project, CellTiter-Glo, duplicate (AID 807); details: H69AR viability with doxorubicin, CellTiter-Glo luminescence; at 10 µM; hits give high values;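 also: compound pretreatment 18-22 h then 72 h combined with doxorubicin; 0% = doxorubicin alone and 100% = vehicle without doxorubicin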
Kindly provide the numeric value in % only, without the unit symbol.

CC(c1ccccc1)C1C(C#N)=C(N)OC2=C1C(=O)CC(C)(C)C2 (stereo unspecified)
-5.71
NC(=O)CNC1CC(=O)N(CCc2ccccc2)C1=O (stereo unspecified)
-2.49
CCC(=O)N=c1sc2cc(F)cc(F)c2n1C
-5.39
O=C(Cn1cnc2c(nnn2-c2cccc(Cl)c2)c1=O)N1CCOCC1
-0.35
COc1cc(C(=O)NCc2ccc3c(c2)OCO3)ccc1OCc1c(C)noc1C
-1.5

Hello, please tell me recorded viability increase for this one: "CCOC(=O)C1CCN(S(=O)(=O)c2ccc3[nH]c(=O)oc3c2)CC1"
-1.5

Input "CN1CCN(c2ncnc3c2sc2nc(N4CCCC4)c4c(c23)CC(C)(C)OC4)CC1" , output reported viability increase.
-3.25

Tell me its viability increase given O=C1CCCN1CC(CN1CCOCC1)Sc1nc2ccccc2c(=O)n1-c1ccccc1 (stereo unspecified) as the entry.
-6.36

For the compound "COc1ccc(S(=O)(=O)NCCSc2ccc(C)cc2)cc1OC" , give its measured viability increase value.
-2.26

Give the value of viability increase reported for the following: "CCCNc1nc2c(c(=O)[nH]c(=O)n2C)n1Cc1cccc(Br)c1"
-2.4

Give reported viability increase value for "COc1cc(S(=O)(=O)N2CCN(Cc3ccc4c(c3)OCO4)CC2)c(C)cc1C"
-4.77
